Every entry's value here was drawn from PubChem BioAssay AID1259415.

# Method: qHTS Assay for inhibitors of the human cytomegalovirus (HCMV); note: % is set by controls: 0 for no effect and ±100 for the full control effect
# Condition set: HFF cells, HCMV-luciferase reporter, 72 h; at 57.5 µM
About 18,000 (4.4%) of roughly 410,000 compounds were called active. Not shown: some 7% with an inconclusive outcome. Cut-off read from the data, not from the text of the source: active = activity change below about -60%; inconclusive = no clear call, values can overlap the other calls; inactive = above about -39%. Many of the other results were omitted from the sample, so actives are more common in it than they were.
Possible outcomes: active, inactive

# Mol smiles, Discrete label
records = [
    ("Nc1nnn(CC(=O)N/N=C/c2ccccc2)n1", "inactive"),
    ("CCN(C(=O)c1cc([N+](=O)[O-])ccc1NCc1cccnc1)c1ccccc1", "active"),
    ("CCN1C(=O)c2ccccc2Sc2ccc(NC(=O)Cc3ccc(OC)cc3)cc21", "inactive"),
    ("O=C(COC(=O)c1cncc(Br)c1)Nc1ccc(S(=O)(=O)N2CCOCC2)cc1", "inactive"),
    ("COc1ccc(N2CCN(S(=O)(=O)c3ccc(-c4coc(C)n4)cc3)CC2)cc1", "inactive"),
    ("COc1ccc(N2CCN(S(=O)(=O)CCNC(=O)C34CC5CC(CC(C5)C3)C4)CC2)cc1", "inactive"),
    ("Cc1ccc(/C=N/NC(=O)COc2ccccc2-c2ccccc2)cc1", "active"),
]

###

# Method: qHTS Assay for inhibitors of the human cytomegalovirus (HCMV); note: % is set by controls: 0 for no effect and ±100 for the full control effect
# Condition set: HFF cells, HCMV-luciferase reporter, 72 h; at 57.5 µM
The whole screen tested about 410,000 compounds, of which about 18,000 (4.4%) were called active. Another 7% or so got no clear call; they are omitted. No stated cut-off is given here; in the data, active means activity change below about -60%; inconclusive means no clear call, values can overlap the other calls; inactive means above about -39%. The full list was thinned out, with actives kept by preference.
Possible outcomes: active, inactive

# Compound, Discrete label
records = [
    ("CCCN1C(=O)C(O)(CC(=O)c2ccc(CC)cc2)c2cc(Br)ccc21 (stereo unspecified)", "active"),
    ("O=C(C[C@H]1CC[C@H]2[C@@H](COC[C@H](O)CN2C(=O)c2ccccn2)O1)N1CCN(c2ccccc2)CC1", "active"),
    ("CCCCC[C@H](C)N1C[C@@H](COCc2ccccc2)Oc2cc(N3CC[C@@H](N(C)C)C3)ccc2S1(=O)=O", "active"),
    ("Cc1ccc(C(=O)CC2(O)C(=O)N(CCc3ccccc3)c3ccc(Br)cc32)cc1 (stereo unspecified)", "active"),
    ("O=C(CSc1nnc(N2CCOCC2)n1-c1cccc(F)c1)N1CCN(c2ccccn2)CC1", "inactive"),
    ("CCc1ccc(C(=O)CC2(O)C(=O)N(CCc3ccccc3)c3ccc(Br)cc32)cc1 (stereo unspecified)", "active"),
]

###

# Method: qHTS Assay for inhibitors of the human cytomegalovirus (HCMV); note: % is set by controls: 0 for no effect and ±100 for the full control effect
# Condition set: HFF cells, HCMV-luciferase reporter, 72 h; at 57.5 µM
# Method: NCGC Assay Overview: Infection with human cytomegalovirus (HCMV) continues to pose significant threats for pregnant women and immunocompromised hosts. […] This is a cell-based assay for HCMV inhibition in HFFs cells. […] At 72 h post infection cell lysates were collected and luciferase activity was determined using the Glomax-Multi + Detection System (Promega, Madison, WI). […]
About 18,000 (4.4%) of roughly 410,000 compounds were called active. About 7% were inconclusive and are not listed. No stated cut-off is given here; in the data, active means activity change below about -60%; inconclusive means no clear call, values can overlap the other calls; inactive means above about -39%. The entries come from a sample that favours actives as a whole.
Possible outcomes: label 1 for active, label 0 for inactive

# Compound, Discrete label
data = [
    ("O=C(Nc1ccc(N2CCN(C(=O)c3ccccc3)CC2)c(Cl)c1)c1cccnc1", "label 1"),
    ("Cc1cc(C(=O)Nc2cccc(C(F)(F)F)c2)c2c(C)nn(-c3cccc(F)c3)c2n1", "label 1"),
    ("O=c1c2ccccc2nc2n1C(CSc1ccc(Cl)cc1)CN2 (stereo unspecified)", "label 0"),
    ("CC(C)(C)c1ccc(Oc2ccc(N)cc2)cc1", "label 1"),
    ("COc1ccc(N2CCN(Cc3nc4c(c(=O)[nH]c(=O)n4C)n3Cc3ccc(Cl)cc3)CC2)cc1", "label 0"),
    ("Cc1c(C(=O)N2CCCC2)oc2c1-c1nn(CC(=O)NCc3ccc(OC(C)C)cc3)cc1CC2", "label 1"),
    ("Cc1ccc(Cc2cnc(NC(=O)/C(C#N)=C/c3ccc(-c4cccc([N+](=O)[O-])c4)o3)s2)cc1", "label 1"),
    ("COc1ccc(C(=O)COC(=O)CN2C(=O)C3CC=CCC3C2=O)c(OC)c1 (stereo unspecified)", "label 0"),
    ("CC12CCC(=O)N1C(C(=O)NCCN1C(=O)S/C(=C\\c3ccccc3F)C1=O)CS2 (stereo unspecified)", "label 0"),
    ("Cc1ccc(-n2c(SCC(=O)N3CCC(C(=O)O)CC3)nc3ccccc3c2=O)cc1C", "label 0"),
    ("O=c1c(NCc2cccs2)nccn1-c1ccccc1", "label 0"),
    ("Cc1ccc(Cn2nnc3c(=O)[nH]c(C4CCN(S(=O)(=O)/C=C/c5ccccc5)CC4)nc32)cc1", "label 0"),
    ("CCCn1c(N)c(C(=O)CSc2nc3ccccc3c(=O)n2-c2ccc(OC)cc2)c(=O)[nH]c1=O", "label 0"),
    ("O=C(CN1C(=O)S/C(=C\\c2ccccc2Cl)C1=O)NC1C=CS(=O)(=O)C1 (stereo unspecified)", "label 1"),
    ("O=C(O)c1cc2c(cc1NC(=O)c1c(F)cccc1Cl)OCCCO2", "label 0"),
    ("CCN(CC)CCNC(=O)c1ccc(NC(=O)c2c(F)cccc2Cl)cc1", "label 0"),
    ("O=C(CSc1nnc(SCc2ccc(Cl)cc2)s1)N/N=C/c1ccccc1Cl", "label 0"),
    ("CCN1C(=O)N[C@@H](CCc2ccccc2)C(C(=O)OC)=C1C", "label 0"),
    ("CCOC(=O)c1ccc(-c2ccc(/C=C(\\C#N)C(=O)Nc3ccc(C)cc3)o2)cc1", "label 0"),
    ("CCOC(=O)c1ccc(-c2ccc(/C=C(\\C#N)C(=O)Nc3ccc(OCC)cc3)o2)cc1", "label 0"),
    ("Cc1cccc(NC(=O)N2CCN(C)c3ncccc32)c1C", "label 0"),
    ("CC(=O)c1ccc(OCC(=O)N(C)C2CCS(=O)(=O)C2)cc1 (stereo unspecified)", "label 0"),
    ("CN(CC(=O)NCc1ccc(Cl)cc1)S(=O)(=O)c1cccs1", "label 0"),
    ("C#CCCCc1nc2ccccc2c(=O)n1N", "label 0"),
    ("Cc1ccc(-n2c(/C=C/c3cccc(C(F)(F)F)c3)nc3ccccc3c2=O)cc1", "label 0"),
    ("COc1ccc(CCNC(=O)CSCc2ccc(Br)cc2)cc1OC", "label 0"),
    ("CCOc1ccc(-c2cn(S(=O)(=O)c3cccc4nsnc34)nc2N)cc1", "label 0"),
    ("Cc1ccccc1N1CCN(C(=O)c2cccnc2)CC1", "label 0"),
    ("O=C(NCCN1CCN(C(=O)c2cccc([N+](=O)[O-])c2)CC1)C(=O)NCc1ccc(Cl)cc1", "label 0"),
    ("COc1ccccc1N1CCN(c2ccc(=O)n(CC(=O)NCc3ccc(OC(C)C)cc3)n2)CC1", "label 0"),
    ("CSc1ccc(CCNC(=O)c2cc(C)nc3c2c(C)nn3-c2cccc(F)c2)cc1", "label 0"),
    ("O=S(=O)(NCCc1ccc(Cl)cc1)c1cccs1", "label 1"),
    ("O=C(NNc1cc(Cl)cc(Cl)c1)c1c(F)cccc1Cl", "label 1"),
    ("Cc1noc(/C=C/N(C)C)c1S(=O)(=O)N1CCCC(C(=O)Nc2cccc(F)c2)C1 (stereo unspecified)", "label 0"),
    ("O=C(COC(=O)CN1C(=O)C2CCCCC2C1=O)Nc1ccc(F)c(F)c1F (stereo unspecified)", "label 0"),
    ("C[n+]1ccc(/C=C/c2c[nH]c3ccccc23)cc1", "label 1"),
]

###

# Method: qHTS Assay for inhibitors of the human cytomegalovirus (HCMV); note: % is set by controls: 0 for no effect and ±100 for the full control effect
# Condition set: HFF cells, HCMV-luciferase reporter, 72 h; at 57.5 µM
Out of some 410,000 compounds screened, about 18,000 (4.4%) were called active. Another 7% or so got no clear call; they are omitted. No stated cut-off is given here; in the data, active means activity change below about -60%; inconclusive means no clear call, values can overlap the other calls; inactive means above about -39%. The full list was thinned out, with actives kept by preference.
Possible outcomes: active, inactive

# Molecule, Discrete label
records = [
    ("Cc1ccccc1CCNC(=O)C1CCN(c2nc3ccccc3nc2C(F)(F)F)CC1", "inactive"),
    ("COc1cccc(-c2nc(CS(=O)(=O)CC(=O)N3CCN(c4cc(C)ccc4C)CC3)c(C)o2)c1", "active"),
    ("Cc1ccc(CN2C(=O)SC(Nc3ccccc3)C2=O)cc1 (stereo unspecified)", "inactive"),
    ("Cc1ccc(S(=O)(=O)c2nc(-c3ccco3)oc2SCC(=O)Nc2ccc(F)cc2)cc1", "inactive"),
    ("CCOc1ccc2c(c1)C(c1ccc(C)cc1)=NNC(c1ccc(C)cc1)=N2", "inactive"),
    ("Cn1c(CCc2ccccc2)nnc1SCC(N)=O", "inactive"),
    ("COc1cc(C(=O)N2CCN(c3ccc(Nc4ccc(C)cc4)nn3)CC2)cc(OC)c1OC", "inactive"),
    ("CC(=O)Nc1ccc(S(=O)(=O)N2CCN(c3ccccc3)CC2)cc1", "inactive"),
    ("Cc1ccc(NC2=NC(c3ccccc3)n3c(nc(C)cc3=O)N2)cc1 (stereo unspecified)", "inactive"),
    ("CCOc1ccc(NC(=O)CSc2c3c(nc4ccccc24)CCCC3)cc1", "inactive"),
    ("COc1ccc(-c2nc(CS(=O)(=O)CC(=O)NCc3cccc(Br)c3)c(C)o2)cc1", "inactive"),
    ("CCn1c(-c2cccnc2Cl)nc2cc(C)c(C)cc21", "inactive"),
    ("COn1c(-c2ccc(Cl)cc2Cl)nc2ncccc21", "active"),
    ("COc1cc(/C=C/C(=O)N2CCc3ccccc3C2)cc(OC)c1OC", "inactive"),
    ("CC(=O)c1ccc(NC(=O)CSc2c(C(C)C)cnc3c2c(=O)n(C)c(=O)n3C)cc1", "inactive"),
    ("COC(=O)c1sccc1S(=O)(=O)N(CC(=O)Nc1ccc(C)c(F)c1)c1ccc(C)c(C)c1", "inactive"),
    ("CCOc1ccc(-c2cc(C)[n+](CCN(CC)CC)c(-c3ccc(OCC)cc3)c2)cc1", "active"),
    ("Cc1nnc(SCc2cc(=O)c3cc(F)ccc3[nH]2)n1C", "inactive"),
    ("COc1cc(/C=C/C(=O)O)cc(S(=O)(=O)Nc2ccccc2SC)c1OC", "inactive"),
    ("Cc1ncn2cc(-c3ccc(Cl)cc3Cl)[nH]c(=O)c12", "inactive"),
    ("S=c1[nH]nc2c3c4c(sc3ncn12)CCCC4", "inactive"),
]
